# target_or_system: UniProtKB Q01064
# Sequence (Q01064 whole entry): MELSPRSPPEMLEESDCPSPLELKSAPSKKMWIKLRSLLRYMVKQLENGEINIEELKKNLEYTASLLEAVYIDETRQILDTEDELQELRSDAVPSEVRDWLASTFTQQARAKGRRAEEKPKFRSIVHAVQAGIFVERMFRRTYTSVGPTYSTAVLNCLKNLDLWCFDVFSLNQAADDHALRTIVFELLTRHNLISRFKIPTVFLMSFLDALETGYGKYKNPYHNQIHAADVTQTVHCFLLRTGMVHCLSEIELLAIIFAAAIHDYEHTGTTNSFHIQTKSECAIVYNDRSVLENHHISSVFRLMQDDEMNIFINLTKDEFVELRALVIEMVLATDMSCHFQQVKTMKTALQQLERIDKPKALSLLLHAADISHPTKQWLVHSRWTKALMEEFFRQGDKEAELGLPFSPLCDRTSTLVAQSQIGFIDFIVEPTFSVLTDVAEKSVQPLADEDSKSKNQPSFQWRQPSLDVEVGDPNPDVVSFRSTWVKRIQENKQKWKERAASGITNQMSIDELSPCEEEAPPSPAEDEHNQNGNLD
# test_details: PDE1 inhibition assay (SPA), PDE1B
# Type: biochemical
# measurement_context: concentration required to reach 50% inhibition of the enzyme; 15 nM tritium labelled cAMP; read-out: PDE1B inhibition (nM or %): IC50
measured_quantity: log10(IC50) (log10 of the value in nM)

| compound | log10(IC50) |
| --- | --- |
| CCCc1nnc2c(=O)n(Cc3cccc(F)c3)cc(C)n12 | 3.00 |
| Cc1ccccc1Cc1cn2c(C3CCOCC3)nnc2c(=O)n1CC1CCCCC1 | 1.64 |
| CCc1nnc2c(=O)n(Cc3ccc(Cl)cc3)ccn12 | 2.90 |
| O=c1c2nnc(CC(F)(F)F)n2ccn1Cc1cccc(F)c1 | 3.15 |
| CCCc1nnc2c(=O)n(CC3CCCCCC3)ccn12 | 1.45 |
| CCCc1nnc2c(=O)n(CC(C)C)ccn12 | 3.43 |
| CCCc1nnc2c(=O)n(Cc3cccc(F)c3)cc([C@H]3CCOC3)n12 (single isomer, unassigned) | 3.36 |
| COc1ccc(Cn2c(C)cn3c(C4CCOCC4)nnc3c2=O)cc1 | 1.53 |
| O=c1c2nnc(CC3CCCO3)n2ccn1Cc1cccc(F)c1 (single isomer, unassigned) | 3.57 |
| CCCc1nnc2c(=O)n(CC34CC5CC(CC(C5)C3)C4)ccn12 | 2.32 |
| Cc1cccc(Cc2cn3c(C4CCOCC4)nnc3c(=O)n2CC2CCCC2)c1 | 1.57 |
| CCCc1nnc2c(=O)n(CC3CCCC(C)C3)ccn12 (mixture of isomers) | 2.36 |
| CCCCC(CC)c1nnc2c(=O)n(Cc3cccc(F)c3)ccn12 (stereo not shown) | 3.20 |
| Cc1ccc(Cc2cn3c(C4CCOCC4)nnc3c(=O)n2Cc2cccc(F)c2)cc1 | 0.78 |
| CCCc1nnc2c(=O)n(Cc3ccccc3Cl)ccn12 | 3.40 |
| CCCc1nnc2c(=O)n(Cc3cccc(Cl)c3)ccn12 | 3.11 |

---

# target_or_system: PDE1C (Homo sapiens)
# Sequence (Q14123 whole entry): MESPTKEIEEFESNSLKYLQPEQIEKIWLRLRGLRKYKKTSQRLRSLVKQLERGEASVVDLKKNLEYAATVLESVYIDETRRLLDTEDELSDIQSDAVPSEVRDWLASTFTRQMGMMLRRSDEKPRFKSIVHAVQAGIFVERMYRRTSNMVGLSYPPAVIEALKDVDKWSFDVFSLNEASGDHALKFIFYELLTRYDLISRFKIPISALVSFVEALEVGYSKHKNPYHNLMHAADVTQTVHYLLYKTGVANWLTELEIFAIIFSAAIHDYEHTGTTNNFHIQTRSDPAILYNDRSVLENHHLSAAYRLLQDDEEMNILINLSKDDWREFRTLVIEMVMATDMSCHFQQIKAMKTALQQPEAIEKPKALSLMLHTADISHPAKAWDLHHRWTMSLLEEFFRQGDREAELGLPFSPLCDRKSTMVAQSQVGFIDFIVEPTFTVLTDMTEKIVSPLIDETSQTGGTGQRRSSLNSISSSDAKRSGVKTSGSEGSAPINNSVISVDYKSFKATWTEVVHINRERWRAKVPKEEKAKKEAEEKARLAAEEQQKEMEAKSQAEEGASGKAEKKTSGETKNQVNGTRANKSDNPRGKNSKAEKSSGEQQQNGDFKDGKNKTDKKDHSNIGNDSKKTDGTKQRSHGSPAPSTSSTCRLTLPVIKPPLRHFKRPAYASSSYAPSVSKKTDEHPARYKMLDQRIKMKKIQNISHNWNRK
# test_details: PDE1 inhibition assay (SPA), PDE1C
# Format: biochemical
# measurement_context: concentration required to reach 50% inhibition of the enzyme; 15 nM tritium labelled cAMP; read-out: PDE1C inhibition (nM or %): IC50

| compound | IC50 / nM |
| --- | --- |
| O=c1c2nnc(C3CCOCC3)n2cc(Cc2ccccc2)n1CC1CCCCCC1 | 2 |
| CCCc1nnc2c(=O)n(Cc3cccc(F)c3)cc([C@@H]3CCOC3)n12 (single isomer, unassigned) | 260 |
| O=c1c2nnc([C@H]3CC[C@@H](O)CC3)n2ccn1Cc1cccc(F)c1 | 350 |
| Cc1ccccc1Cc1cn2c(C3CCOCC3)nnc2c(=O)n1CC1CCCC1 | 23 |
| O=c1c2nnc(C3CCOCC3)n2ccn1CC1CCCC1 | 110 |
| CCCc1nnc2c(=O)n(CC3CCCC(C)C3)ccn12 (mixture of isomers) | 83 |
| CCCc1nnc2c(=O)n(CC3(C)CCCCC3)ccn12 | 260 |
| O=c1c2nnc(C3CCOCC3)n2ccn1CC1CCCCCC1 | 42 |
| CCCCCCn1ccn2c(C3CCOCC3)nnc2c1=O | 1100 |
| Cc1ccccc1Cc1cn2c(C3CCOCC3)nnc2c(=O)n1Cc1cccc(F)c1 | 17 |
| CCCc1nnc2c(=O)n(CC3CCCC3)ccn12 | 95 |
| CCCc1nnc2c(=O)n(Cc3ccc(Cl)cc3)ccn12 | 170 |
| Cc1cccc(Cc2cn3c(C4CCOCC4)nnc3c(=O)n2Cc2cccc(F)c2)c1 | 2 |
| CCCc1nnc2c(=O)n(Cc3ccc(OC)cc3)c(C)cn12 | 44 |
